Item-by-item account of normalized RNA/DNA level with ligand (log10)
B1: library; a variant is named by its letters at N, in order (parent)
chain: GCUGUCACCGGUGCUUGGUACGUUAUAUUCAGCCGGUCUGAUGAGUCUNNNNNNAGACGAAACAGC

- Variants of: B1
- protocolNotes: normalized RNA/DNA level with ligand (relative to sTRSVctl = 100) (log10 (% of sTRSVctl)); HEK293T overexpressing SLC46A1; ligand concentration (+) RNA-Seq: 6 mM; higher = less ribozyme self-cleavage, higher mRNA level
- conditionLabel: with (6R,S)-folinic acid; ligand present: yes
experimentalReadout: normalized RNA/DNA level with ligand (log10)

mutationLabel	val
CAUAUU	1.98
ACUGGU	2
UUGACC	2.04
UCCUCC	2.02
GAAACU	2
AUUCUC	2.04
AGUAGU	2.01
UUAACC	2
UCGUCG	2.06
UGCAUC	2.04
UGGUAA	1.95
UACGCG	1.98
AUUACC	2
AUGAGG	2.01
CAUCCC	2.04
CUCGGG	2.07
GGCCUG	2.03
GAUUAA	2
AUUACU	2.04
CAGUGU	2.03
CAUUUA	2
CACUAU	2.01
UUAAGC	2.03
CUACUG	2.04
AGGCAU	2.02
CUGCAA	2.05
AGUUUG	2.02
ACAAGC	2.02
GUCCCG	1.98
ACCGGG	2.06
CCGGGU	2.05
AACUGA	2.02

Ref: the supplement of paper PMC6757056
